B1: HDV Ribozyme (parent)
chain: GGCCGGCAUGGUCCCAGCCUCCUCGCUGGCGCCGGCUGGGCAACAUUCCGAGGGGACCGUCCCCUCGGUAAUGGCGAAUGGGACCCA

Variants of: B1
Method: self-cleavage, relative activity (ratio to wild type); higher = more cleavage; co-transcriptional
Observation type: self-cleavage
Answer using only a numeral; do not append any unit.

>  <Mutant code>
C7G U37G

>  <Quantitative readout>
0

$$$$
>  <Mutant code>
C19A A83C

>  <Quantitative readout>
0.0426

$$$$
>  <Mutant code>
C33U C66G

>  <Quantitative readout>
0.946

$$$$
>  <Mutant code>
U27G G80A

>  <Quantitative readout>
0.533

$$$$
>  <Mutant code>
C57U A78C

>  <Quantitative readout>
0.312

$$$$
>  <Mutant code>
C32A A87U

>  <Quantitative readout>
0.183

$$$$
>  <Mutant code>
G25C C62U

>  <Quantitative readout>
0.145

$$$$
>  <Mutant code>
A8G U12G

>  <Quantitative readout>
0.712

$$$$

Record A43G C44G , field self-cleavage: 0.798

Record G59A C84U , field self-cleavage: 0.73

Record C15A U37C , field self-cleavage: 0.665

Record C15G C84A , field self-cleavage: 0.519

Record C49G C57G , field self-cleavage: 0.997

Record G11C C62U , field self-cleavage: 0.271

Record A70C A71U , field self-cleavage: 0.791

Record C3U C22U , field self-cleavage: 0.525

Record G1U A78C , field self-cleavage: 0.293

Record G10C C61G , field self-cleavage: 0.808

Record G39U A42C , field self-cleavage: 0.237

Record G40U G74U , field self-cleavage: 0.468

Record A45G G50C , field self-cleavage: 0.989

Values compiled from the RNAGym collection of RNA variant scans (doi:10.7554/elife.80360).
